MEASURED TARGET: UniProtKB O15296
Sequence (whole entry): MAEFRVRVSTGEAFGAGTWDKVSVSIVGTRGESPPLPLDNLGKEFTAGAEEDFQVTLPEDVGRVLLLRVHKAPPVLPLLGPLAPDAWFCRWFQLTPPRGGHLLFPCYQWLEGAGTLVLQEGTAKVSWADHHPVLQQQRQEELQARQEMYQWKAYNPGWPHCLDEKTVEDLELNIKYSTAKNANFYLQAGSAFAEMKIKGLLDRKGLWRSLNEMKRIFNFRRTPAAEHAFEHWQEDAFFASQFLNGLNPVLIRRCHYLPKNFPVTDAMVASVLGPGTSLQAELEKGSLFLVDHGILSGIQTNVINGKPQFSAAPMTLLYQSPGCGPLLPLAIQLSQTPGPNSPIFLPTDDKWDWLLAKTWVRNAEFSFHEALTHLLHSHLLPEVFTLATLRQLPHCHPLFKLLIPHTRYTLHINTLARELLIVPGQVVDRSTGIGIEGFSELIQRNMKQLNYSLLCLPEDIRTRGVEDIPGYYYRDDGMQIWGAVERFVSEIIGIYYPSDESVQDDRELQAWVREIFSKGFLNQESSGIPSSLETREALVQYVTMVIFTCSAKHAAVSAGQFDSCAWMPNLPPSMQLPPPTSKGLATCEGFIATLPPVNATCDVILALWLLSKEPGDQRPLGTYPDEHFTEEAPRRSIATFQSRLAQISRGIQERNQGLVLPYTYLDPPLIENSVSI
RUN DESCRIPTION: Inhibition of N-terminal His6-tagged human prostate epithelial 15-LOX2 pseudoperoxidase activity assessed as reduction of active ferric ion to inactive ferrous state measured decomposition of 13-(S)-HPODE at 40 uM after 30 mins by iron-xylenol orange staining assay
STUDY CONDITIONS: Prostate gland
ENDPOINT NAME: inhibition (%)

Recorded results for 3 compounds are shown here.
CCC(=O)NC(c1ccco1)c1cc([N+](=O)[O-])c2cccnc2c1O (stereo unspecified)	0
CC(c1cc2ccccc2s1)N(O)C(N)=O (stereo unspecified)	100
O=C1O[C@H]([C@@H](O)CO)C(O)=C1O	75

I: CC(Cc1ccc(O)c(O)c1)C(C)Cc1ccc(O)c(O)c1 (stereo unspecified)
II: CC(/C=C/c1cccc(Oc2ccc(F)cc2)c1)N(O)C(N)=O (stereo unspecified)
Ask: Of I and II , whose reported inhibition is the larger number? Please identify the chosen entry by its label.
Reply: II
(II: 100%, I: 0%)
